Below, each entry is listed with its recorded Kd.
- assay-system: T1, Duck egg lysozyme (DEL), D65N + N103D double mutant of the DEL-II isoform (Anas platyrhynchos, DEL-II double mutant, strain)
- T1 construct: duck egg lysozyme, DEL-II isoform, D65N + N103D double mutant; differs from HEL3X at 25 amino acids; source: Pichia pastoris, secreted, purified from culture supernatant (ion exchange)
- T1 chain: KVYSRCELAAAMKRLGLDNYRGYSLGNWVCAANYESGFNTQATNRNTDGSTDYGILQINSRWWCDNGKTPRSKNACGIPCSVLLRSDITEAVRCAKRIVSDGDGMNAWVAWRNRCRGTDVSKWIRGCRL
- experiment-description: BLI; BLItz (ForteBio); biotinylated Hy10 Fab variant immobilised on streptavidin biosensors (rehydrated in PBS with 0.1% wt/vol BSA); soluble monomeric lysozyme antigen as analyte at a range of concentrations; global fit, 1:1 Fab-lysozyme interaction
- condition-set: both partners purified
Express it in nM; write the number only.

Solved cases (2 shown):
Hy10 Fab Y53F/S56R (Fab, V domains shown, as the heavy chain of Dm5 with the stated changes; as the light chain of Dm5; source: Expi293, transient (pCEP4), purified (Talon resin, gel filtration)) VH: DVQLQESGPSLVKPSQTLSLTCSVTGDSITSDYWSWIRKFPGNRLEYMGYVSFSGRTYYNPSLKSRISITRDTSKNQYYLDLNSVTTEDTATYYCANWDGDYWGQGTLVTVSA VL: DIVLTQSPATLSVTPGNSVSLSCRASQSIGNNLHWYQQKSHESPRLLIKYASQSISGIPSRFSGSGSGTDFTLSINSVETEDFGMYFCQQSNSWPYTFGGGTKLEIK : 26.8
Hy10 Fab Y53F/Y58F (Fab, V domains shown, as the heavy chain of Dm5 with the stated changes; as the light chain of Dm5; source: Expi293, transient (pCEP4), purified (Talon resin, gel filtration)) VH: DVQLQESGPSLVKPSQTLSLTCSVTGDSITSDYWSWIRKFPGNRLEYMGYVSFSGSTFYNPSLKSRISITRDTSKNQYYLDLNSVTTEDTATYYCANWDGDYWGQGTLVTVSA VL: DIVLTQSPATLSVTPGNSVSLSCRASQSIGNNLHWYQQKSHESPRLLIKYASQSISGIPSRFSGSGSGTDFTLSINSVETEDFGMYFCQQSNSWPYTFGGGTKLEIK : 8.85

Note: attention shifts to another entry.
Tell me Kd reported for Hy10 Fab S56R (Fab, V domains shown, as the heavy chain of Dm5 with the stated changes; as the light chain of Dm5; also called Hy10-S56R; source: Expi293, transient (pCEP4), purified (Talon resin, gel filtration)) VH: DVQLQESGPSLVKPSQTLSLTCSVTGDSITSDYWSWIRKFPGNRLEYMGYVSYSGRTYYNPSLKSRISITRDTSKNQYYLDLNSVTTEDTATYYCANWDGDYWGQGTLVTVSA VL: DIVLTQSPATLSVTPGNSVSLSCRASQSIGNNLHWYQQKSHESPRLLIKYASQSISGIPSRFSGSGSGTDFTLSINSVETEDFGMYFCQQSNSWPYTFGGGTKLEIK
227
